For each of the compounds below, state its CC50.
Tested on: HEK-293T
protocol: Cytotoxicity against human HEK 293T cells assessed as reduction in cell viability measured after 48 hrs by Celltiter-glo assay
Format: cell-based
Give bare numbers, in µM.

Sample answers from the record:
* COn1cc(CC(=O)Nc2ccncc2Cl)c2ccccc21 | 20
* CCCCCCCCOn1cc(CC(=O)Nc2ccccc2Cl)c2ccccc21 | 22.9
* COn1cc(CC(=O)Nc2ccccc2)c2ccccc21 | 28

Provide CC50 values for the following items, in order.
1. CCCCCCCOn1cc(CC(=O)Nc2ccccc2Cl)c2ccccc21
2. COC(=O)c1ccccc1NC(=O)Cc1cn(O)c2ccccc12

[23.9, 24.6]

The following compounds each have a reported value; give each one's CC50.
1. CCOC(=O)c1ccccc1NC(=O)Cc1cn(OC)c2ccccc12
2. COC(=O)c1ccccc1NC(=O)CCc1cn(OC)c2ccccc12
3. CCCOn1cc(CC(=O)Nc2ccccc2Cl)c2ccccc21

29.1
26.8
29.5

Okay, here is my list. What is CC50 for each of these?
1. COc1cc(NC(=O)Cc2cn(OC)c3ccccc23)cc(OC)c1OC
2. COc1cc(NC(=O)Cc2cn(OC)c3ccccc23)cc(OC)c1
3. O=C(Cc1cn(OCc2ccccc2)c2ccccc12)Nc1ccccc1Cl
4. COn1cc(CC(=O)Nc2ccccc2Cl)c2ccccc21
5. COn1cc(CC(=O)Nc2ccncc2Br)c2ccccc21
6. COn1cc(CC(=O)Nc2ccccc2F)c2ccccc21
7. O=C1Nc2ccc(Cl)cc2[C@@](C#CC2CC2)(C(F)(F)F)O1

1. 13.9
2. 21.6
3. 16.5
4. 27.8
5. 18.6
6. 28.6
7. 23.7

----------
Test system: HEK-293T
protocol: Cytotoxicity against human HEK 293T cells assessed as reduction in cell viability measured after 48 hrs by Celltiter-glo assay
Type: cell-based
parameter: CC50

Below, 4 compounds whose answers are already recorded.
* COC(=O)c1ccccc1NC(=O)CCCc1cn(OC)c2ccccc12 | > 30 µM
* COn1cc(CC(=O)Nc2cccc(Cl)c2)c2ccccc21 | > 30 µM
* COc1ccc(COn2cc(CC(=O)Nc3ccccc3Cl)c3ccccc32)cc1 | 20.3 µM
* CCCCCOn1cc(CC(=O)Nc2ccccc2Cl)c2ccccc21 | 18.7 µM

Parameters: items (list). Returns: CC50 for each item.
1. CCCOn1cc(Cc2ccncc2Cl)c2ccccc21
2. COn1cc(CC(=O)Nc2ccccc2I)c2ccccc21
3. CCCCOn1cc(CC(=O)Nc2ccncc2Cl)c2ccccc21
4. COn1cc(CC(=O)Nc2ccc(Cl)cc2)c2ccccc21
5. O=C(Cc1cn(OC(=O)c2ccccc2)c2ccccc12)Nc1ccccc1Cl
6. COn1cc(CC(=O)Nc2ccccc2Br)c2ccccc21

> 30 µM
> 30 µM
22.1 µM
> 30 µM
29.4 µM
> 30 µM

----------
Please respond with reported selectivity ratio for every item in the list.
protocol: Selectivity index, ratio of CC50 for human HEK 293T cells to EC50 for VSVG/wild type HIV1 infected in human HEK 293T cells
Type: toxicity, cell-based
stated-conditions: read-out: Ratio CC50/EC50
One number for each entry.

• O=C(Cc1cn(OCc2ccccc2)c2ccccc12)Nc1ccccc1Cl = 1.93
• CCCCCOn1cc(CC(=O)Nc2ccccc2Cl)c2ccccc21 = 29.7
• CCCOn1cc(CC(=O)Nc2ccncc2F)c2ccccc21 = 42.8
• CCCCCCCOn1cc(CC(=O)Nc2ccccc2Cl)c2ccccc21 = 12.2
• CCCCCCCCOn1cc(CC(=O)Nc2ccccc2Cl)c2ccccc21 = 5.21
• CCOn1cc(CC(=O)Nc2ccccc2Cl)c2ccccc21 = 24.2

Kindly give each listed record's selectivity ratio.
1. CCCCCOn1cc(CC(=O)Nc2ccncc2Cl)c2ccccc21
2. COn1cc(CC(=O)Nc2ccncc2Cl)c2ccccc21
3. CCCOn1cc(CC(=O)Nc2ccncn2)c2ccccc21

1. 169
2. 37.7
3. 5.43

Please report selectivity ratio for every entry that follows.
1. COn1cc(CC(=O)Nc2ccccc2Cl)c2ccccc21
2. COn1cc(CC(=O)Nc2ccncc2Br)c2ccccc21
3. CCCOn1cc(CC(=O)Nc2ccccc2C(F)(F)F)c2ccccc21

[8.42, 28.1, 5.81]

# per-item lookup of selectivity ratio; items listed below
1. CCCCOn1cc(CC(=O)Nc2ccccc2Cl)c2ccccc21
2. COn1cc(CC(=O)Nc2ccncc2)c2ccccc21

1. 45.5
2. 2.88
